// reported logD per item
experiment: Lipophilicity, log D of the compound at pH 7.4; conditions: buffer
Answer with a bare number; do not write a unit.

Some compounds with known logD results, for comparison:
| mol smiles | logD |
| --- | --- |
| N#CC1(NC(=O)[C@@H]2CCCC[C@H]2C(=O)N2CCc3[nH]c4c(C(F)(F)F)cccc4c3C2)CC1 | 3.8 |
| CC(C)c1ccc2[nH]c3c(c2c1)CN(C(=O)[C@@H]1CCCC[C@H]1C(=O)NC1(C#N)CC1)CC3 | 4.1 |
| Cc1cccc2c3c([nH]c12)CCN(C(=O)[C@@H]1CCCC[C@H]1C(=O)NC1(C#N)CC1)C3 | 3 |
| CN1CCN(C(=O)[C@@H]2CCCC[C@H]2C(=O)NCC#N)CC1 | -0.1 |
| COc1cccc2c3c([nH]c12)CCN(C(=O)[C@@H]1CCCC[C@H]1C(=O)NC1(C#N)CC1)C3 | 2.7 |
| N#CC1(NC(=O)[C@@H]2CCCC[C@H]2C(=O)N2CCc3[nH]c4c(F)cccc4c3C2)CC1 | 3 |

# evaluate next
Endpoint output: logD of N#CC1(NC(=O)[C@@H]2CCCC[C@H]2C(=O)N2CCc3[nH]c4ccc(Cl)cc4c3C2)CC1 . Value?
3.7

----------
experiment: Lipophilicity, log D of the compound at pH 7.4; conditions: buffer
Exam item: assign fulfilled to entries whose logD is below 3 and not fulfilled to entries at or above 3. Note that a value of exactly 3 receives not fulfilled.

| mol smiles | label class |
| --- | --- |
| CCOc1cccc2c3c([nH]c12)CCN(C(=O)[C@@H]1CCCC[C@H]1C(=O)NC1(C#N)CC1)C3 | not fulfilled |
| N#CCNC(=O)[C@@H]1CCCC[C@H]1C(=O)N1CCCCC1 | fulfilled |
| COc1ccc2[nH]c3c(c2c1)CN(C(=O)[C@@H]1CCCC[C@H]1C(=O)NC1(C#N)CC1)CC3 | fulfilled |
| Cn1c2c(c3c(F)c(F)ccc31)CN(C(=O)[C@@H]1CCCC[C@H]1C(=O)NC1(C#N)CC1)CC2 | fulfilled |
| CS(=O)(=O)c1ccc2c3c([nH]c2c1)CCN(C(=O)[C@@H]1CCCC[C@H]1C(=O)NC1(C#N)CC1)C3 | fulfilled |

Let's switch to this compound now.
is_below(logD, 3) for N#CC1(NC(=O)[C@@H]2CCCC[C@H]2C(=O)N2CCc3[nH]c4ncccc4c3C2)CC1 ?
fulfilled

----------
test: Half life in Beagle dog at 1.0 mg/kg, iv administered as single dose; conditions: in vivo
metric name: half-life (h)
State just the number; it will be interpreted in h.

| mol smiles | half-life (h) |
| --- | --- |
| COc1cccc2c3c([nH]c12)CCN(C(=O)[C@@H]1CCCC[C@H]1C(=O)NC1(C#N)CC1)C3 | 1.5 |

# evaluate next
Endpoint output: half-life of N#CC1(NC(=O)[C@@H]2CCCC[C@H]2C(=O)N2CCc3[nH]c4ccc(F)cc4c3C2)CC1 . Value?
1.8

----------
assay: Lipophilicity, log D of the compound at pH 7.4; conditions: buffer
// reported logD per item

| mol smiles | logD |
| --- | --- |
| N#CC1(NC(=O)[C@@H]2CCCC[C@H]2C(=O)N2CCc3[nH]c4c(OC(F)(F)F)cccc4c3C2)CC1 | 4 |
| C[C@H](C#N)NC(=O)[C@@H]1CCCC[C@H]1C(=O)N1CCc2[nH]c3ccc(F)cc3c2C1 | 3.1 |
| N#CC1(NC(=O)[C@@H]2CCCC[C@H]2C(=O)N2CCc3[nH]c4ccc(C(F)(F)F)cc4c3C2)CC1 | 4.2 |

Endpoint output: logD of CN(C)C(=O)[C@@H]1CCCC[C@H]1C(=O)NCC#N . Value?
< 0.5

----------
// reported log10 IC50 per item
molecular target: Cathepsin K (Homo sapiens, UniProt P43235); test: Inhibition of human recombinant CatK assessed as suppression of enzyme-mediated Z-Phe-Arg-AMC cleavage incubated for 1 hrs by QFRET assay
Sequence (P43235 whole entry): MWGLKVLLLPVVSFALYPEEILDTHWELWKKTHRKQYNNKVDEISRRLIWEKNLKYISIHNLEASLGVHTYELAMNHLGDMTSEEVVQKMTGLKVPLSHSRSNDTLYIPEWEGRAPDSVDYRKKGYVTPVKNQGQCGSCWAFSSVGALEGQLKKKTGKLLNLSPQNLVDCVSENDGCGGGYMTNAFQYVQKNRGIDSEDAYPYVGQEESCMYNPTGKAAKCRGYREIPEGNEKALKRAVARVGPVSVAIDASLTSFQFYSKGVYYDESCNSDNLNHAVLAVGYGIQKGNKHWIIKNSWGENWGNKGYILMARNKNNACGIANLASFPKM
Friendly reminder: values = log10 of IC50, unit nM.

Some compounds with known log10 IC50 results, for comparison:
| mol smiles | assayed system | metric name | data value |
| --- | --- | --- | --- |
| N#CC1(NC(=O)[C@@H]2CCCC[C@H]2C(=O)N2CCc3[nH]c4c(C(F)(F)F)cccc4c3C2)CC1 | Cathepsin K (Homo sapiens, UniProt P43235) | log10 IC50 | 0.70 |
| N#CC1(NC(=O)[C@@H]2CCCC[C@H]2C(=O)N2CCc3[nH]c4cccc(F)c4c3C2)CC1 | Cathepsin K (Homo sapiens, UniProt P43235) | log10 IC50 | 1.00 |
| CN(C)C(=O)[C@@H]1CCCC[C@H]1C(=O)NCC#N | Cathepsin K (Homo sapiens, UniProt P43235) | log10 IC50 | 2.41 |
| N#CC1(NC(=O)[C@@H]2CCCC[C@H]2C(=O)N2CCc3[nH]c4cc(F)ccc4c3C2)CC1 | Cathepsin K (Homo sapiens, UniProt P43235) | log10 IC50 | 0.60 |
| C[C@@H](C#N)NC(=O)[C@@H]1CCCC[C@H]1C(=O)N1CCc2[nH]c3ccc(F)cc3c2C1 | Cathepsin K (Homo sapiens, UniProt P43235) | log10 IC50 | 1.24 |
| N#CC1(NC(=O)[C@@H]2CCCC[C@H]2C(=O)N2CCc3[nH]c4c(Cl)cccc4c3C2)CC1 | Cathepsin K (Homo sapiens, UniProt P43235) | log10 IC50 | 0.30 |
| N#CCNC(=O)[C@@H]1CCCC[C@H]1C(=O)N1CCN(c2ccccc2)CC1 | Cathepsin K (Homo sapiens, UniProt P43235) | log10 IC50 | 0.85 |

# evaluate next
Endpoint output: log10 IC50 of N#CCNC(=O)[C@@H]1CCCC[C@H]1C(=O)N1CCCCC1 . Value?
1.86

----------
assay: Intrinsic clearance in human liver microsomes assessed as metabolic turnover
// reported log10 microsomal CLint per item
Friendly reminder: values = log10 of microsomal CLint, unit µL/min/mg.

Some molecules with known log10 microsomal CLint results, for comparison:
| mol smiles | metric name | data value |
| --- | --- | --- |
| CN1CCN(C(=O)[C@@H]2CCCC[C@H]2C(=O)NCC#N)CC1 | log10 microsomal CLint | 0.90 |
| N#CCNC(=O)[C@@H]1CCCC[C@H]1C(=O)N1CCN(c2ccccc2)CC1 | log10 microsomal CLint | 0.89 |
| N#CCNC(=O)[C@@H]1CCCC[C@H]1C(=O)N1CCc2[nH]c3ccc(F)cc3c2C1 | log10 microsomal CLint | 1.26 |
| CS(=O)(=O)c1cccc2c3c([nH]c12)CCN(C(=O)[C@@H]1CCCC[C@H]1C(=O)NC1(C#N)CC1)C3 | log10 microsomal CLint | 0.60 |
| N#CC1(NC(=O)[C@@H]2CCCC[C@H]2C(=O)N2CCc3[nH]c4c(OC(F)(F)F)cccc4c3C2)CC1 | log10 microsomal CLint | 1.28 |

Endpoint output: log10 microsomal CLint of N#CC1(NC(=O)[C@@H]2CCCC[C@H]2C(=O)N2CCc3[nH]c4ccc(F)cc4c3C2)CC1 . Value?
1.61

Endpoint output: log10 microsomal CLint of Cn1c2c(c3c(F)c(F)ccc31)CN(C(=O)[C@@H]1CCCC[C@H]1C(=O)NC1(C#N)CC1)CC2 . Value?
2.23

Endpoint output: log10 microsomal CLint of N#CC1(NC(=O)[C@@H]2CCCC[C@H]2C(=O)N2CCc3[nH]c4c(Br)cccc4c3C2)CC1 . Value?
1.63

Endpoint output: log10 microsomal CLint of N#CC1(NC(=O)[C@@H]2CCCC[C@H]2C(=O)N2CCc3[nH]c4ccc(Cl)cc4c3C2)CC1 . Value?
1.94

Endpoint output: log10 microsomal CLint of N#Cc1cccc2c3c([nH]c12)CCN(C(=O)[C@@H]1CCCC[C@H]1C(=O)NC1(C#N)CC1)C3 . Value?
1.53

Endpoint output: log10 microsomal CLint of C[C@H](C#N)NC(=O)[C@@H]1CCCC[C@H]1C(=O)N1CCc2[nH]c3ccc(F)cc3c2C1 . Value?
1.08

Endpoint output: log10 microsomal CLint of CS(=O)(=O)c1ccc2[nH]c3c(c2c1)CN(C(=O)[C@@H]1CCCC[C@H]1C(=O)NC1(C#N)CC1)CC3 . Value?
1.15

Endpoint output: log10 microsomal CLint of N#CC1(NC(=O)[C@@H]2CCCC[C@H]2C(=O)N2CCc3[nH]c4c(Cl)cccc4c3C2)CC1 . Value?
1.66

Endpoint output: log10 microsomal CLint of CCOc1cccc2c3c([nH]c12)CCN(C(=O)[C@@H]1CCCC[C@H]1C(=O)NC1(C#N)CC1)C3 . Value?
1.11

Endpoint output: log10 microsomal CLint of CN(C)C(=O)[C@@H]1CCCC[C@H]1C(=O)NCC#N . Value?
0.71

Endpoint output: log10 microsomal CLint of N#CC1(NC(=O)[C@@H]2CCCC[C@H]2C(=O)N2CCc3[nH]c4ccccc4c3C2)CC1 . Value?
1.41
